Provenance of the data: paper PMC8775380

# TESTED SYSTEM: Pseudomonas aeruginosa single-stranded DNA-binding protein (PaSSB) (Pseudomonas aeruginosa)
# Sequence (P40947 2-165): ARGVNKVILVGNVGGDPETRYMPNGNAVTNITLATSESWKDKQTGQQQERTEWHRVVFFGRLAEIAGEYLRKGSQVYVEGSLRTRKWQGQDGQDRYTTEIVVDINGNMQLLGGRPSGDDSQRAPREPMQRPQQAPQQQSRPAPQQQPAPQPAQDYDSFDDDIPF
# PROTOCOL NOTES: EMSA, inhibition of PaSSB binding to biotin-labeled dT35 ssDNA
OBSERVATION TYPE: IC50 (nM)
Numbers only; they are read as nM.

q: Given the compound `O=c1c(O)c(-c2cc(O)c(O)c(O)c2)oc2cc(O)cc(O)c12` , write its reported IC50.
a: 2800
